Biological target: Serine protease HTRA2, mitochondrial (Homo sapiens, UniProt O43464)
Sequence (O43464 whole entry): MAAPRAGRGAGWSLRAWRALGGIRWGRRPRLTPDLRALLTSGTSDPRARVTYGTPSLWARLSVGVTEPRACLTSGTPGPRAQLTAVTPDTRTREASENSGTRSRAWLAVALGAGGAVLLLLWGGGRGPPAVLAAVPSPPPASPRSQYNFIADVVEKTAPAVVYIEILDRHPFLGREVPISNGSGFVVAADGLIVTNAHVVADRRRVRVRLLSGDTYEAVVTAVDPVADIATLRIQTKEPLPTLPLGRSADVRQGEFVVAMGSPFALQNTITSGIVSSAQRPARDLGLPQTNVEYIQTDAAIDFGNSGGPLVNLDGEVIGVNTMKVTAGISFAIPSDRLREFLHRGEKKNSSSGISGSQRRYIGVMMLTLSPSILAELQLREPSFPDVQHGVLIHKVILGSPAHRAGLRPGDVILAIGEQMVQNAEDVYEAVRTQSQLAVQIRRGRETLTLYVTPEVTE
Assay: Inhibition of recombinant human HTRA2 using H2-OPT as substrate assessed as increase in fluorescence and measured for 2 hrs by fluorescent plate reader analysis
pIC50: −log10 of the molar value.
Kindly return criterion met if reported pIC50 is no lower than 5; return criterion not met if it is lower.

{"columns": ["chem_smiles", "target_of_assay", "cat"],
 "data": [
  ["CC(C)C[C@H](NC(=O)[C@H](CCCCN)NC(=O)[C@H](Cc1ccccc1)NC(=O)CCCCCNC(=O)c1ccc(C(=O)O)c(-c2c3ccc(=O)cc-3oc3cc(O)ccc23)c1)C(=O)N[C@@H](C(C)C)P(=O)(Oc1ccccc1)Oc1ccccc1", "Serine protease HTRA2, mitochondrial (Homo sapiens, UniProt O43464)", "criterion not met"],
  ["O=C1C(=Cc2ccc(-c3ccccc3[N+](=O)[O-])o2)C(=O)N(c2ccccc2)C(=S)N1c1ccccc1", "Serine protease HTRA2, mitochondrial (Homo sapiens, UniProt O43464)", "criterion not met"],
  ["NCCc1ccc(S(=O)(=O)F)cc1", "Serine protease HTRA2, mitochondrial (Homo sapiens, UniProt O43464)", "criterion not met"],
  ["CC[C@H](NC(=O)[C@H](CCCCN)NC(=O)[C@H](Cc1ccccc1)NC(=O)CCCCCNC(=O)c1ccc(C(=O)O)c(-c2c3ccc(=O)cc-3oc3cc(O)ccc23)c1)C(=O)N[C@@H](C(C)C)P(=O)(Oc1ccccc1)Oc1ccccc1", "Serine protease HTRA2, mitochondrial (Homo sapiens, UniProt O43464)", "criterion not met"],
  ["CC(C)C[C@H](NC(=O)CCCCCNC(=O)c1ccc(C(=O)O)c(-c2c3ccc(=O)cc-3oc3cc(O)ccc23)c1)C(=O)N[C@@H](Cc1ccccc1)C(=O)N[C@@H](CC1CC1)C(=O)N[C@@H](C(C)C)P(=O)(Oc1ccccc1)Oc1ccccc1", "Serine protease HTRA2, mitochondrial (Homo sapiens, UniProt O43464)", "criterion met"],
  ["CC(C)C[C@H](NC(=O)CCCCCNC(=O)c1ccc(C(=O)O)c(-c2c3ccc(=O)cc-3oc3cc(O)ccc23)c1)C(=O)N[C@@H](Cc1ccc2ccccc2c1)C(=O)N[C@@H](CC(C)C)C(=O)N[C@@H](C(C)C)P(=O)(Oc1ccccc1)Oc1ccccc1", "Serine protease HTRA2, mitochondrial (Homo sapiens, UniProt O43464)", "criterion met"]
]}

// provenance: ChEMBL document CHEMBL5257069
